Consider the following compounds and their measured IC50 readings.
Test system: MDA-MB-231
protocol: Cytotoxicity against ER negative human MDA-MB-231 cells treated every 2 days for 4 days measured after 7 days by CellTiter-Glo luminescence assay
Assay type: functional, cell-based

molecule	IC50 / nM
CC/C(=C(\c1ccc(O)cc1)c1ccc(OCCN(C)C)cc1)c1ccc(CCCCC(=O)NO)cc1	1100
CCC(=C(c1ccc(O)cc1)c1ccc(OCCN(C)C)cc1)c1ccccc1	2500

====

test_system: Histone deacetylase 3/Nuclear receptor corepressor 2 (HDAC3/NCoR2) (Homo sapiens, UniProt O15379)
Sequence (O15379 whole entry): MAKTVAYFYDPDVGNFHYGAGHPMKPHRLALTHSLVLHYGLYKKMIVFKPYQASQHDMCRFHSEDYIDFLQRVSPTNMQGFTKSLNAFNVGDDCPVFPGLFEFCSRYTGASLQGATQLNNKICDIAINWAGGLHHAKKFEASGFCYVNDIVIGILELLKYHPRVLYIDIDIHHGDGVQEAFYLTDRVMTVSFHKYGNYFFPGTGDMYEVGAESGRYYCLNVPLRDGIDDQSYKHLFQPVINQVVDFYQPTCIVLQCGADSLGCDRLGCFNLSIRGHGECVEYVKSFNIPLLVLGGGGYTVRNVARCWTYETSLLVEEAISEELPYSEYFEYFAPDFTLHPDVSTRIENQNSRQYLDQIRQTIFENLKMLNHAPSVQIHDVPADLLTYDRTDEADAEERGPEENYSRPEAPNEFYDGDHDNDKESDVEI
Sequence (Q9Y618 whole entry, further chain): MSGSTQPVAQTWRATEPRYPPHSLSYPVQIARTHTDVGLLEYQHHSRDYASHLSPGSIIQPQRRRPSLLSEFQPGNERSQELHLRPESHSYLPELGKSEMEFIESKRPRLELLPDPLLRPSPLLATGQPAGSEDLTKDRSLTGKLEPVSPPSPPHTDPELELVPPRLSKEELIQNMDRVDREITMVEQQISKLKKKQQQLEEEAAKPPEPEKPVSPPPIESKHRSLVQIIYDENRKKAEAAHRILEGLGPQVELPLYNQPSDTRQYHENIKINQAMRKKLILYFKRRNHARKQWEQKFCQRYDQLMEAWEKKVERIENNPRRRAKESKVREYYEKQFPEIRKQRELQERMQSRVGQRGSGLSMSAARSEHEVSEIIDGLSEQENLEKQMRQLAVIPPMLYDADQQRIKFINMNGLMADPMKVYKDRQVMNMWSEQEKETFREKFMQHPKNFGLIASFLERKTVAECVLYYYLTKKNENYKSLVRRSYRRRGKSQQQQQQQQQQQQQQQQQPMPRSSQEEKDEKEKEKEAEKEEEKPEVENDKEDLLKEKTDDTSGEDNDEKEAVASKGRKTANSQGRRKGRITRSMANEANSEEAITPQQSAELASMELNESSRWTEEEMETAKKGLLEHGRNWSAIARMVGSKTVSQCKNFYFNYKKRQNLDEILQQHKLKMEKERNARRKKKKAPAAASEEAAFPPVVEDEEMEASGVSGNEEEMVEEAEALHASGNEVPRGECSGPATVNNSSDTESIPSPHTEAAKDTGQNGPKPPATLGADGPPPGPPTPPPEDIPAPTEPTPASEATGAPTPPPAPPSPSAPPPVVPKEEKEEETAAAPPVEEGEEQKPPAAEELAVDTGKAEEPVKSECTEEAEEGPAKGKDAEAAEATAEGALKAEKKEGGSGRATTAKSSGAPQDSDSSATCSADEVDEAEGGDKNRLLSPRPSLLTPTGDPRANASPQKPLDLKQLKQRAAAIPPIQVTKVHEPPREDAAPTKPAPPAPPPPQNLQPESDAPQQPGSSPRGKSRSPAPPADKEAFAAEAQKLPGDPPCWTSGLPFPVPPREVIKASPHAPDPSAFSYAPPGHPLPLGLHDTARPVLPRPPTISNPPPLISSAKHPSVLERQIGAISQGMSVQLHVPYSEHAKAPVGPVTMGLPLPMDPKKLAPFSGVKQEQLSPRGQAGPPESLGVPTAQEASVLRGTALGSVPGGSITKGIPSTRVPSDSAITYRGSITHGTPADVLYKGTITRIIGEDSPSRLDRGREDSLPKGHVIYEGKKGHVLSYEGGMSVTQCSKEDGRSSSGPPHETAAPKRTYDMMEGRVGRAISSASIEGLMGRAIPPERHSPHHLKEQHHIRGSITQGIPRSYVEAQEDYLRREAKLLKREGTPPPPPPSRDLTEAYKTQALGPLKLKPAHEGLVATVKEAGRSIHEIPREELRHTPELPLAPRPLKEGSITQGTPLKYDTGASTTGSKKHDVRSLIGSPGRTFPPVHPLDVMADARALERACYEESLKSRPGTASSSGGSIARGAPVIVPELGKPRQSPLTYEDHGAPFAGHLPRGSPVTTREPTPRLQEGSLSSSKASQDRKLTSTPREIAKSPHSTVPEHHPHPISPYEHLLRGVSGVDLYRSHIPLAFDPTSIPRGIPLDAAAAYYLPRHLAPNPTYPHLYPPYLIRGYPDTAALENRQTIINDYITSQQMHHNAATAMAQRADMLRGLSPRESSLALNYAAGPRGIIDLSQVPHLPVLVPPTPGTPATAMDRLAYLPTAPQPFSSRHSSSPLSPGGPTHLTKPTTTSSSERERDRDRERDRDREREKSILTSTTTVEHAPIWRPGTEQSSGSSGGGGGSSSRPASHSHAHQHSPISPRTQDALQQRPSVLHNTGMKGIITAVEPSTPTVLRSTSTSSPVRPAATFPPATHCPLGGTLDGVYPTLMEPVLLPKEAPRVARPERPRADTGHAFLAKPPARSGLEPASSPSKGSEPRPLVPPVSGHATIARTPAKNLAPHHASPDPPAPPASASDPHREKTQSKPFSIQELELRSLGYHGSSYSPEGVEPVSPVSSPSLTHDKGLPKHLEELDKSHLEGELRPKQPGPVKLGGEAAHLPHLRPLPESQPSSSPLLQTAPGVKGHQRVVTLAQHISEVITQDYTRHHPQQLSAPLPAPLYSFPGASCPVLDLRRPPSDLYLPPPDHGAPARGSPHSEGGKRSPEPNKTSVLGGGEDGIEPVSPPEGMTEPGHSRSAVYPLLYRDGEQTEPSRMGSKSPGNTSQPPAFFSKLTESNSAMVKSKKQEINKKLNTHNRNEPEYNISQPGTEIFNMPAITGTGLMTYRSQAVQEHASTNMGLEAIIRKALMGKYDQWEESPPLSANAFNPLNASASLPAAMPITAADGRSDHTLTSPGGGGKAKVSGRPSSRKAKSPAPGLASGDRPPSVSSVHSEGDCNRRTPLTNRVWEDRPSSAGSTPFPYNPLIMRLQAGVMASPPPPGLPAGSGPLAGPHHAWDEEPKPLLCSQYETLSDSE
outcome_measure: IC50 (nM)

molecule	measurement_units	observed_result
CC/C(=C(\c1ccc(O)cc1)c1ccc(OCCN(C)C)cc1)c1ccc(OCCCCC(=O)NO)cc1	nM	2100
CC/C(=C(\c1ccc(O)cc1)c1ccc(OCCN(C)C)cc1)c1ccc(CCC(=O)NO)cc1	nM	2010
CC/C(=C(\c1ccc(O)cc1)c1ccc(OCCN(C)C)cc1)c1ccc(CCCCC(=O)NO)cc1	nM	734
CC/C(=C(\c1ccc(O)cc1)c1ccc(OCCN(C)C)cc1)c1ccc(/C=C/C(=O)NO)cc1	nM	6720

====

test_system: Protein deacetylase HDAC6 (Homo sapiens, UniProt Q9UBN7)
Sequence (Q9UBN7 whole entry): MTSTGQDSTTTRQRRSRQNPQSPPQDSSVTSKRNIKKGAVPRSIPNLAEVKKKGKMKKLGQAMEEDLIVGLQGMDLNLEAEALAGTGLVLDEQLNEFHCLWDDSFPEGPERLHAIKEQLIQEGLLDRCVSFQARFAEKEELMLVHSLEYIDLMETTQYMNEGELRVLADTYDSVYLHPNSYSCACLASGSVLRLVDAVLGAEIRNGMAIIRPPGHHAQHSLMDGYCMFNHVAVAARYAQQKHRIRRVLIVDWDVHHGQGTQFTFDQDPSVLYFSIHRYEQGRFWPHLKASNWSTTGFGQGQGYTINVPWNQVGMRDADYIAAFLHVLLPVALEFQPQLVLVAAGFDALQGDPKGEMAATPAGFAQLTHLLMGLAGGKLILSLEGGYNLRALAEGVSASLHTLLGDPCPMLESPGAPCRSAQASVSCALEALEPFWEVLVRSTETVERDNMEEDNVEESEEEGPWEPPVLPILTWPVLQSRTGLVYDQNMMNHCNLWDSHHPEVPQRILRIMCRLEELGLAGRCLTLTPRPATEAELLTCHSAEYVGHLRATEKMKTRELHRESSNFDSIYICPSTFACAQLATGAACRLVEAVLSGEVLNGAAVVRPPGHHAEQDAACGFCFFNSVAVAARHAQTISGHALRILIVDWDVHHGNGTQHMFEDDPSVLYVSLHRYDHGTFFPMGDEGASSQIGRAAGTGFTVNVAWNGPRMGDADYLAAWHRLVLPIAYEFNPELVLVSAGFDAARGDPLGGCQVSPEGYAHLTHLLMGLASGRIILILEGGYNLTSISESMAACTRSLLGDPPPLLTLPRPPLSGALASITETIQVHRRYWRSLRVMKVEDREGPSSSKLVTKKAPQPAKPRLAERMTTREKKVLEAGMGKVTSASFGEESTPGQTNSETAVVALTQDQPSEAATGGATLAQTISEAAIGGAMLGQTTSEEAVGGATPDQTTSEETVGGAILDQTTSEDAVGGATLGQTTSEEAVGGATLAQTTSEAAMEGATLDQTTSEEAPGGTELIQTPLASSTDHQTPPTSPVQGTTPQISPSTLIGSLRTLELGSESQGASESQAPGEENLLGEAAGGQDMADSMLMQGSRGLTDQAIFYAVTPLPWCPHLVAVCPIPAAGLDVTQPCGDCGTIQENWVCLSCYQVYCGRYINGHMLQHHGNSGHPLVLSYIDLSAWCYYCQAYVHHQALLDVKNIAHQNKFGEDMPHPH
protocol: Inhibition of full length recombinant human N-terminal GST-tagged HDAC6 expressed in Sf9 cells using Ac-Leu-Gly-Lys(Ac)-AMC as substrate measured after 30 mins by fluorescence assay
pIC50: −log10 of the molar value.
outcome_measure: pIC50

molecule	test_system	outcome_measure	observed_result
CC/C(=C(\c1ccc(O)cc1)c1ccc(OCCN(C)C)cc1)c1ccc(/C=C/C(=O)NO)cc1	Protein deacetylase HDAC6 (Homo sapiens, UniProt Q9UBN7)	pIC50	6.28
CC/C(=C(\c1ccc(O)cc1)c1ccc(OCCN(C)C)cc1)c1ccc(CCCCC(=O)NO)cc1	Protein deacetylase HDAC6 (Homo sapiens, UniProt Q9UBN7)	pIC50	6.52
CC/C(=C(\c1ccc(O)cc1)c1ccc(OCCN(C)C)cc1)c1ccc(OCCCCC(=O)NO)cc1	Protein deacetylase HDAC6 (Homo sapiens, UniProt Q9UBN7)	pIC50	5.75
CC/C(=C(\c1ccc(O)cc1)c1ccc(OCCN(C)C)cc1)c1ccc(C(=O)NO)cc1	Protein deacetylase HDAC6 (Homo sapiens, UniProt Q9UBN7)	pIC50	4.14
CC/C(=C(\c1ccc(O)cc1)c1ccc(OCCN(C)C)cc1)c1ccc(CCC(=O)NO)cc1	Protein deacetylase HDAC6 (Homo sapiens, UniProt Q9UBN7)	pIC50	6.32

====

test_system: Estrogen receptor (Homo sapiens)
Sequence (P03372 whole entry): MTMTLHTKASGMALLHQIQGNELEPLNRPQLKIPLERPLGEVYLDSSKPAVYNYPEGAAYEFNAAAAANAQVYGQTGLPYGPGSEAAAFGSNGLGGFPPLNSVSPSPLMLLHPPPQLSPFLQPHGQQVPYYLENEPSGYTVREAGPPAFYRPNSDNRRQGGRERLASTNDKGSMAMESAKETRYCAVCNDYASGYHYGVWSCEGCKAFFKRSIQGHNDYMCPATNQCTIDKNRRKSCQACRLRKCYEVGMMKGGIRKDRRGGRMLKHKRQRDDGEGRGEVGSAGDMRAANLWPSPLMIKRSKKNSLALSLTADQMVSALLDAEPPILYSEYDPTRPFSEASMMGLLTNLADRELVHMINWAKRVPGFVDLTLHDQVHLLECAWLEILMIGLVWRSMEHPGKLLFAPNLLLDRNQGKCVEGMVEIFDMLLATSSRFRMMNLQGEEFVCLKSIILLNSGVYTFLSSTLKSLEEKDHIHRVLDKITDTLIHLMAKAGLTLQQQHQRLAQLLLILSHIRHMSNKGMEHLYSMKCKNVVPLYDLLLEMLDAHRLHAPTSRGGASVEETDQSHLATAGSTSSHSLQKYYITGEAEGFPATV
protocol: Antagonist activity at recombinant human ERalpha expressed in HEK293 cells assessed as inhibition of estradiol-induced YFP-fused SRC1 coactivator recruitment measured after 1 hr in presence of Coelenterazine H by BRET assay
pIC50: −log10 of the molar value.
Below, each entry is listed alongside its reported pIC50.
outcome_measure: pIC50

molecule	outcome_measure	observed_result
CC/C(=C(\c1ccc(O)cc1)c1ccc(OCCN(C)C)cc1)c1ccc(CCC(=O)NO)cc1	pIC50	5.71
CC/C(=C(\c1ccc(O)cc1)c1ccc(OCCN(C)C)cc1)c1ccc(CCCCC(=O)NO)cc1	pIC50	6.09
CC/C(=C(\c1ccc(O)cc1)c1ccc(OCCN(C)C)cc1)c1ccc(C(=O)NO)cc1	pIC50	5.95
CC/C(=C(\c1ccc(O)cc1)c1ccc(OCCN(C)C)cc1)c1ccc(OCCCCC(=O)NO)cc1	pIC50	6.10

====

test_system: UniProtKB P03372
protocol: Partial agonist activity at recombinant human ERalpha expressed in HEK293 cells assessed as YFP-fused SRC1 coactivator recruitment measured after 1 hr in presence of Coelenterazine H by BRET assay
Type: cell-based
conditions: hek293, 1 h
outcome_measure: Activity

molecule	outcome_measure	observed_result
CC/C(=C(\c1ccc(O)cc1)c1ccc(OCCN(C)C)cc1)c1ccc(/C=C/C(=O)NO)cc1	Activity	Not Active
CC/C(=C(\c1ccc(O)cc1)c1ccc(OCCN(C)C)cc1)c1ccc(CCC(=O)NO)cc1	Activity	Not Active
CC/C(=C(\c1ccc(O)cc1)c1ccc(OCCN(C)C)cc1)c1ccc(CCCCC(=O)NO)cc1	Activity	Not Active
CC/C(=C(\c1ccc(O)cc1)c1ccc(OCCN(C)C)cc1)c1ccc(C(=O)NO)cc1	Activity	Not Active
CC/C(=C(\c1ccc(O)cc1)c1ccc(OCCN(C)C)cc1)c1ccc(OCCCCC(=O)NO)cc1	Activity	Not Active

====

System: MCF7
protocol: Cytotoxicity against ER positive human MCF7 cells treated every 2 days for 4 days measured post last dose by CellTiter-Glo luminescence assay
Format: functional, cell-based
I'd appreciate it if you marked entries y when IC50 is lower than 4 µM and n when it is not.

molecule	test_system	group
CC/C(=C(\c1ccc(O)cc1)c1ccc(OCCN(C)C)cc1)c1ccc(CCC(=O)NO)cc1	MCF7	y
CC/C(=C(\c1ccc(O)cc1)c1ccc(OCCN(C)C)cc1)c1ccc(/C=C/C(=O)NO)cc1	MCF7	n
CC/C(=C(\c1ccc(O)cc1)c1ccc(OCCN(C)C)cc1)c1ccc(CCCCC(=O)NO)cc1	MCF7	y
CC/C(=C(\c1ccc(O)cc1)c1ccc(OCCN(C)C)cc1)c1ccc(OCCCCC(=O)NO)cc1	MCF7	y
